B1: library; a variant is named by its letters at N, in order (parent)
chain: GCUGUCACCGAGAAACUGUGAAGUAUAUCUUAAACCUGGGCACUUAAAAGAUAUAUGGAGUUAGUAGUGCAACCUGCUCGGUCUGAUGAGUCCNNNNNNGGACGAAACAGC

- Variants of: B1
- assay_name: FACS-Seq fitted mean relative fluorescence mCherry/BFP with ligand (log10 relative fluorescence); HEK293T; ligand: cyclic di-GMP (c-di-GMP-II aptamer); ligand concentration (+) FACS-Seq: 1 mM; higher = higher reporter protein expression
- condition_set: ligand present: yes
Property: FACS-Seq fitted mean (log10); scope: individual variants
The answer should be written as a number, with no unit following it.

mutation_name | assay_readout | reported
UGAAAU | FACS-Seq fitted mean (log10) | 0.368
UGGGAA | FACS-Seq fitted mean (log10) | -0.113
CACAGU | FACS-Seq fitted mean (log10) | 0.105
AAAAGC | FACS-Seq fitted mean (log10) | 0.227
GUAAAG | FACS-Seq fitted mean (log10) | 0.229

The variant identified as UUUAGU registered its FACS-Seq fitted mean (log10) at 0.273

The variant identified as GAAACA registered its FACS-Seq fitted mean (log10) at -0.185

The variant identified as AGCGAA registered its FACS-Seq fitted mean (log10) at 0.163
